Assay: Cmax in C57BL mouse at […] measured upto 24 hrs by LC-MS/MS analysis
Format: ADME, organism-based
Conditions: in vivo
METRIC_NAME: Cmax (ng/mL)

- SAMPLE_SMILES: "CCn1c(CO)nn(-c2cc3c(C(C)C)cn(-c4c(C)cnc(OC)c4Cl)c(=O)c3cc2F)c1=O"
  METRIC_NAME: "Cmax"
  UNIT_LABEL: "ng/mL"
  MEASUREMENT: 4100
- SAMPLE_SMILES: "CCn1c(CO)nn(-c2cc3c(C(C)C)cn(-c4c(F)cccc4Cl)c(=O)c3cc2F)c1=O"
  METRIC_NAME: "Cmax"
  UNIT_LABEL: "ng/mL"
  MEASUREMENT: 8200
- SAMPLE_SMILES: "CCn1c(CO)nn(-c2cc3c(C(C)C)cn(-c4ccccc4C(F)(F)F)c(=O)c3cc2F)c1=O"
  METRIC_NAME: "Cmax"
  UNIT_LABEL: "ng/mL"
  MEASUREMENT: 5700
- SAMPLE_SMILES: "CCn1c(CO)nn(-c2cc3c([C@@H](C)C(F)(F)F)cn(-c4ccccc4C)c(=O)c3cc2F)c1=O"
  METRIC_NAME: "Cmax"
  UNIT_LABEL: "ng/mL"
  MEASUREMENT: 4500
- SAMPLE_SMILES: "CCn1c(CO)nn(-c2cc3c(C(C)C)cn(-c4ccccc4C)c(=O)c3cc2F)c1=O"
  METRIC_NAME: "Cmax"
  UNIT_LABEL: "ng/mL"
  MEASUREMENT: 6200

----------
Assay: Lipophilicity, logD of compound
Format: physicochemical
Conditions: octanol/water
Measured logD, listed per entry for reference.

- SAMPLE_SMILES: "CCn1c(CO)nn(-c2cc3c(C(C)C)cn(-c4ccccc4C)c(=O)c3cc2F)c1=O"
  logD: 2.7
- SAMPLE_SMILES: "CCn1c(CO)nn(-c2cc3c([C@@H](C)C(F)(F)F)cn(-c4ccccc4C)c(=O)c3cc2F)c1=O"
  logD: 2.6
- SAMPLE_SMILES: "CCn1c(CO)nn(-c2cc3c(C(C)C)cn(-c4ccc(F)cc4C)c(=O)c3cc2F)c1=O"
  logD: 2.7
- SAMPLE_SMILES: "CCn1c(CO)nn(-c2cc3c(C(C)C)cn(-c4c(F)cccc4Cl)c(=O)c3cc2F)c1=O"
  logD: 3.1

----------
Test: Equilibrium solubility of compound in PBS at pH 2 incubated for 2 to 5 days by HPLC analysis
Assay type: physicochemical
Conditions: PBS, time 2-5 day
METRIC_NAME: solubility thermodynamic

- SAMPLE_SMILES: "CCn1c(CO)nn(-c2cc3c(C(C)C)cn(-c4c(C)cnc(OC)c4Cl)c(=O)c3cc2F)c1=O"
  MEASUREMENT: "78 µM"
- SAMPLE_SMILES: "CCn1c(CO)nn(-c2cc3c(C(C)C)cn(-c4cc(F)ccc4C)c(=O)c3cc2F)c1=O"
  MEASUREMENT: "30 µM"
- SAMPLE_SMILES: "CCn1c(CO)nn(-c2cc3c(C(C)C)cn(-c4ccccc4OC)c(=O)c3cc2F)c1=O"
  MEASUREMENT: "19 µM"
- SAMPLE_SMILES: "CCn1c(CO)nn(-c2cc3c(C(C)C)cn(-c4c(C)cccc4F)c(=O)c3cc2F)c1=O"
  MEASUREMENT: "23 µM"
- SAMPLE_SMILES: "CCn1c(CO)nn(-c2cc3c(C(C)C)cn(-c4c(F)cccc4Cl)c(=O)c3cc2F)c1=O"
  MEASUREMENT: "< 4 µM"
